The origin of these recorded values is patent US20240199692A1.

Quick reference: pIC50 of the listed items.
biological target: UniProt:P08253; assay: Inhibitory effects on human MMP2 (Method 1), enzyme assay with MOCAc-Pro-Leu-Gly-Leu-A2pr(Dnp)-Ala-Arg-NH2 substrate, 96-well; type: biochemical; settings: Test Example No. 1-1 (Method 1, 96-well microplate); read-out: Human MMP2, IC50
Sequence (P08253 110-660): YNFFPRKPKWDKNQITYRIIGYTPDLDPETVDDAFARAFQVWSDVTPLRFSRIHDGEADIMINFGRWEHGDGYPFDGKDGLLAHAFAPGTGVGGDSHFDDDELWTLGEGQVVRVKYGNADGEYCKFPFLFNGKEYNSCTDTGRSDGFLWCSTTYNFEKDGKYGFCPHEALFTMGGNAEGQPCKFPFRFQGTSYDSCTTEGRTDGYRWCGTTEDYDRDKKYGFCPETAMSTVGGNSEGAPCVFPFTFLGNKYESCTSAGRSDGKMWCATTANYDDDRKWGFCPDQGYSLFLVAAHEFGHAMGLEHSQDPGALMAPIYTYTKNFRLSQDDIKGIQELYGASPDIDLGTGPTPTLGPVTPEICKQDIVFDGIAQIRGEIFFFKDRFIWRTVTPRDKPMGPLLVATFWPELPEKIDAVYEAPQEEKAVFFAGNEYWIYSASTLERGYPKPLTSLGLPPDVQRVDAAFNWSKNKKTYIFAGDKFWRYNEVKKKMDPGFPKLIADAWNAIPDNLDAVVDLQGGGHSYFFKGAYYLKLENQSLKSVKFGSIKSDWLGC
*1 amine or outer side, *2 acyl side, *3 side chain or, on linkers, in order; H or OH if unused. Where a SMILES comes first, the peptide text is derived from it. [ ]: non-standard residue; d: D form. The star is where a group is joined. X14 = CN(C)C(=O)c1ccc(C(=O)Nc2ccc(S(=O)(=O)*)cc2)cc1; X3 = O=C(Nc1ccc(S(=O)(=O)*)cc1)c1ccc(OC2CC2)cc1; Benzoyl(4-OPh) = O=C(c1ccc(Oc2ccccc2)cc1)*; X9 = O=C(NCCCO)c1ccc(Oc2ccc(C(=O)*)cc2)cc1; d(γGlu) = O=C(O)[C@@H](CCC(=O)[*:2])N[*:1]; d(βAsp) = O=C(O)[C@@H](CC(=O)[*:2])N[*:1]; NMeI = CC[C@H](C)[C@H](NC)C(=O)O; NMeE = CN[C@@H](CCC(=O)O)C(=O)O; β3hP = O=C(O)C[C@@H]1CCCN1; Aze = O=C(O)[C@@H]1CCN1; Dab = NCC[C@H](N)C(=O)O; Dap = NC[C@H](N)C(=O)O; Ava = NCCCCC(=O)O; GABA = NCCCC(=O)O
Answer as the number alone; pIC50 is minus log10 of concentration in mol/L.

Q. Which pIC50 value belongs to CC(C)C[C@H](NC(=O)[C@H](CCN)NC(=O)CC[C@@H](NS(=O)(=O)c1ccc(NC(=O)c2ccc(OC3CC3)cc2)cc1)C(=O)O)C(=O)N(C)[C@@H](CCC(=O)O)C(=O)N1CCC[C@H]1CC(N)=O [Compound 703] ({X3-d(γGlu)}-[Dab]L[NMeE][β3hP]-NH2; N-terminus assumed) ?
A. 9.48

Q. Which pIC50 value belongs to CC[C@H](C)[C@@H](C(=O)N1CCC[C@H]1CC(N)=O)N(C)C(=O)[C@H](CC(C)C)NC(=O)[C@H](CN)NC(=O)[C@H](CC(=O)O)NC(=O)[C@@H]1CCN1C(=O)CCCNC(=O)c1ccc(Oc2ccccc2)cc1 [Compound 132] ({Benzoyl(4-OPh)-GABA}-[Aze]D[Dap]L[NMeI][β3hP]-NH2; N-terminus assumed) ?
A. 9.37

Q. Which pIC50 value belongs to CC(C)C[C@H](NC(=O)[C@H](CCN)NC(=O)[C@H](CC(=O)O)NC(=O)[C@H](CC(N)=O)NC(=O)CCCCNC(=O)c1ccc(Oc2ccc(C(=O)NCCCO)cc2)cc1)C(=O)N(C)[C@@H](CCC(=O)O)C(=O)N1CCC[C@H]1CC(N)=O [Compound 182] ({X9-Ava}-ND[Dab]L[NMeE][β3hP]-NH2; N-terminus assumed) ?
A. 9.31

# next compound below
Q. Which pIC50 value belongs to CC(C)C[C@H](NC(=O)[C@H](CN)NC(=O)C[C@@H](NS(=O)(=O)c1ccc(NC(=O)c2ccc(C(=O)N(C)C)cc2)cc1)C(=O)O)C(=O)N(C)[C@@H](CCC(=O)O)C(=O)N1CCC[C@H]1CC(N)=O [Compound 679] ({X14-d(βAsp)}-[Dap]L[NMeE][β3hP]-NH2; N-terminus assumed) ?
A. 8.82
